AC50 tested on Alpha-1A adrenergic receptor (Homo sapiens, UniProt P35348): recorded values; also: assay procedure not described here
Sequence (P35348 whole entry): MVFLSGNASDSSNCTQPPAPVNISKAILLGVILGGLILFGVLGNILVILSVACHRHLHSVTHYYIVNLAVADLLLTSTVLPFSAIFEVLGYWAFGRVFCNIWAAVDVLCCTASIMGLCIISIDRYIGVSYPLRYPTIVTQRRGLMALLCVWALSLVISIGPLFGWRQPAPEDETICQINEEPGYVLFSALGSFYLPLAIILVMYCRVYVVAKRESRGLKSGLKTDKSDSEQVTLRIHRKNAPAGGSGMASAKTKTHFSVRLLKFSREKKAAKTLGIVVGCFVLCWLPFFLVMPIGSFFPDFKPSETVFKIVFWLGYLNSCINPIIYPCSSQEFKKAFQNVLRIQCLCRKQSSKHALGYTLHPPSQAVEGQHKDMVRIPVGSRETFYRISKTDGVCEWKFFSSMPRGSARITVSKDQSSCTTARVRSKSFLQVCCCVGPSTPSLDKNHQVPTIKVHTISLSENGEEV
ASSAY_READOUT: AC50

MOLECULE	ASSAY_READOUT	MEAS_VALUE
COc1cccc(C2(O)CCCCC2CN(C)C)c1 (stereo not given)	AC50	> 10 µM
CC1=C(C(=O)O)N2C(=O)[C@@H](NC(=O)[C@H](N)c3ccccc3)[C@H]2SC1 [CEPHALEXIN ANHYDROUS]	AC50	> 10 µM
Cc1c(C(=O)NN2CCCCC2)nn(-c2ccc(Cl)cc2Cl)c1-c1ccc(Cl)cc1	AC50	13.7 µM
CN(C)CCC(c1ccc(Cl)cc1)c1ccccn1 (stereo not given)	AC50	> 10 µM
CC[C@H]1OC(=O)[C@H](C)[C@@H](O[C@H]2C[C@@](C)(OC)[C@@H](O)[C@H](C)O2)[C@H](C)[C@@H](O[C@@H]2O[C@H](C)C[C@H](N(C)C)[C@H]2O)[C@](C)(O)C[C@@H](C)CN(C)[C@H](C)[C@@H](O)[C@]1(C)O	AC50	> 10 µM
CCOC(=O)[C@H](CCc1ccccc1)N[C@@H](C)C(=O)N1[C@H](C(=O)O)C[C@@H]2CCC[C@@H]21	AC50	> 10 µM
CN1CCN(CC/C=C2/c3ccccc3Sc3ccc(S(=O)(=O)N(C)C)cc32)CC1	AC50	0.0624 µM
CCCCc1ncc(/C=C(\Cc2cccs2)C(=O)O)n1Cc1ccc(C(=O)O)cc1	AC50	> 10 µM
CCc1c(Cl)c(O)c(Cl)c(O)c1C(=O)O[C@H]1[C@H](O)[C@H](OC)[C@H](OC/C2=C\C=C\C[C@H](O)/C(C)=C/[C@H](CC)[C@@H](O[C@@H]3OC(C)(C)[C@@H](OC(=O)C(C)C)[C@H](O)[C@@H]3O)/C(C)=C/C(C)=C/C[C@@H]([C@@H](C)O)OC2=O)O[C@@H]1C	AC50	> 10 µM
O=[N+]([O-])c1cn2c(n1)OC[C@@H](OCc1ccc(OC(F)(F)F)cc1)C2	AC50	> 10 µM
NCC(CC(=O)O)c1ccc(Cl)cc1 (stereo not given)	AC50	> 10 µM
Cn1nnc2c(C(N)=O)ncn2c1=O [TEMOZOLOMIDE]	AC50	> 10 µM
COc1ccc2c3c1O[C@H]1[C@@H](O)C=C[C@H]4[C@@H](C2)N(C)CC[C@@]341	AC50	> 10 µM
Clc1ccc2nsnc2c1NC1=NCCN1	AC50	1.92 µM
Cc1ccc(-c2cc(C(F)(F)F)nn2-c2ccc(S(N)(=O)=O)cc2)cc1	AC50	> 10 µM
